# Tested on: MCF7 (Breast Carcinoma)
# assay.remarks: combination Emax (second highest fraction inhibited in the dose matrix, 72 h); higher = more inhibition; extreme values may be limits of the assay
Could you please report measured combination Emax for the items listed next?
Numbers only.

// below: answered compounds
CN(CCO)CC[C@H](CSc1ccccc1)Nc1ccc(S(=O)(=O)NC(=O)c2ccc(N3CCC([C@@H](O)c4ccccc4-c4ccc(Cl)cc4)CC3)cc2)cc1S(=O)(=O)C(F)(F)F [AZD4320] + Cn1cnc2c(F)c(Nc3ccc(Br)cc3Cl)c(C(=O)NOCCO)cc21 [Selumetinib] (first compound max 1 µM, 7x7, partner max 3 µM); 0.402
CCc1c2c(nc3ccc(O)cc13)-c1cc3c(c(=O)n1C2)COC(=O)[C@]3(O)CC [SN-38] + O=C(c1cc(Cc2n[nH]c(=O)c3ccccc23)ccc1F)N1CCN(C(=O)C2CC2)CC1 [Olaparib] (first compound max 0.3 µM, 7x7, partner max 10 µM); 0.654
COc1nnc2ccc(N3CCC(c4ccc(OCCN5CCN(C)C(=O)[C@H]5C)cc4)CC3)nn12 [AZD5153] + CC1(C)CCC(CN2CCN(c3ccc(C(=O)NS(=O)(=O)c4ccc(NCC5CCOCC5)c([N+](=O)[O-])c4)c(Oc4cnc5[nH]ccc5c4)c3)CC2)=C(c2ccc(Cl)cc2)C1 [Venetoclax] (first compound max 1 µM, 7x7, partner max 1 µM); 0.669

Please report combination Emax for every entry that follows.
1. COc1nnc2ccc(N3CCC(c4ccc(OCCN5CCN(C)C(=O)[C@H]5C)cc4)CC3)nn12 [AZD5153] + Cc1c2c(nn1C)CSCc1cc(n(C)n1)CSc1cc(c3ccccc3c1)OCCCc1c(C(=O)O)n(C)c3c-2c(Cl)ccc13 [AZD5991] (first compound max 1 µM, 7x7, partner max 1 µM)
2. CN(C)CCCOc1ccc(-c2ccc3ncc4c(c3c2)n(C2CCOCC2)c(=O)n4C)cn1 [AZD0156] + O=C(c1cc(Cc2n[nH]c(=O)c3ccccc23)ccc1F)N1CCN(C(=O)C2CC2)CC1 [Olaparib] (first compound max 3 µM, partner max 3 µM)
3. CC1(C)CCC(CN2CCN(c3ccc(C(=O)NS(=O)(=O)c4ccc(NCC5CCOCC5)c([N+](=O)[O-])c4)c(Oc4cnc5[nH]ccc5c4)c3)CC2)=C(c2ccc(Cl)cc2)C1 [Venetoclax] + C[C@@H](Nc1cc(F)cc(F)c1)c1cc(C(=O)N(C)C)cc2c(=O)cc(N3CCOCC3)oc12 [AZD8186] (first compound max 1 µM, 7x7, partner max 3 µM)

1. 0.769
2. 0.324
3. 0.255
